From: paper PMC9482650

measured on: NHERF4_4, Q86UT5
Sequence (Q86UT5 464-550): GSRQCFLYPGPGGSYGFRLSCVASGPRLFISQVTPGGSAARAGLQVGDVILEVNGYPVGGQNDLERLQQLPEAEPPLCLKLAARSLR
test summary: holdup assay
Design: key: below the threshold = too weak to quantify, mostly under pKd 3.1 to 4
condition description: plain residues with an end cap or a label only (N-terminal biotin on a linker: ado-ado)
value kind: pKd

Examples from the recorded data:
GVHSNDHSVV [LPAR1, Q92633] = below the threshold
NSTHNLKDYV [CLDN20, P56880] = below the threshold
QKASRNESTF [POLR1D, P0DPB6] = 3.81
ATKDKKITTV [EXOC4, Q96A65] = 3.99
SAGADSETHC [SLCO1B1, Q9Y6L6] = below the threshold

Data request: Return reported pKd. Input binder: VISSDDLTEL [CAPN6, Q9Y6Q1]
Data returned: below the threshold

Data request: Could you please provide reported pKd for KIEDVEITLV [FCHSD2, O94868] ? Thanks!
Data returned: below the threshold

Data request: Identify the reported pKd for the following entry. SQPLLVHDDV [KIT, P10721]
Data returned: below the threshold
